meta.source: ChEMBL document CHEMBL1141633

# TARGET ENTITY: Potassium voltage-gated channel subfamily A member 3 (Homo sapiens, UniProt P22001)
# Sequence (P22001 whole entry): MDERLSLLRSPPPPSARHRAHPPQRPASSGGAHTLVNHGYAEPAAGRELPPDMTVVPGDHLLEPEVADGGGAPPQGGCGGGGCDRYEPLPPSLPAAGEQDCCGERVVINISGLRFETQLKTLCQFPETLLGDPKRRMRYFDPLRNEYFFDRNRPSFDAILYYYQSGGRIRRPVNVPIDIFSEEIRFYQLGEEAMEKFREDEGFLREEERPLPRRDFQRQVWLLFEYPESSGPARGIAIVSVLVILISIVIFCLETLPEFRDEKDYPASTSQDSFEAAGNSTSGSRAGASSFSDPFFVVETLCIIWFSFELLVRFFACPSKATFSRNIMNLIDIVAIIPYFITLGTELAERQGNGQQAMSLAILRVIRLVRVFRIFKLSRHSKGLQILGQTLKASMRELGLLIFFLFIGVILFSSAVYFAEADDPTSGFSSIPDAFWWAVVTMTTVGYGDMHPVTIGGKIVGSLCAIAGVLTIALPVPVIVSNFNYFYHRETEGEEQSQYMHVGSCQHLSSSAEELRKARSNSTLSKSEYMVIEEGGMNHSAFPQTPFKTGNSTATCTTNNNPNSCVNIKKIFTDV
# ASSAY TEXT: Inhibition in Kv1.3 expressed in human Jurkat cells by patch clamp method
# Assay type: cell-based
Overview of reported pEC50 across a group of molecules:
Note on pEC50: it is the negative log10 of concentration, concentration in mol/L.

> print(dat)
                           substance.smiles  measured.result
1  COc1cccc(/C=C/C(=O)c2cc3ccoc3c(OC)c2O)c1             5.77
2  COc1cccc(/C=C/C(=O)c2c(O)c(OC)c3occc3c2OC)c1             6.05
3  COc1cccc(/C=C/C(=O)c2cc(OC)c3occc3c2OC)c1             5.62

[ask] Please give the measured pEC50 for this molecule: COc1c(C(=O)/C=C/c2ccccc2)cc(OC)c2occc12
[reply] 5.62

[ask] Please give the measured pEC50 for this molecule: COc1cccc(/C=C(\C)C(=O)c2c(O)c(OC)c3occc3c2OC)c1
[reply] 5.52
